System Name: Aβ40 (Homo sapiens, UniProt P05067)
Sequence (P05067 672-711 limits assumed, species assumed): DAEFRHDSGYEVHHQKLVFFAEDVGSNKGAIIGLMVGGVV
Protocol Notes: kinetic ThT assay for Aβ aggregation
Format: biochemical
Assay Context: compound 10 μM; DMSO control at 80 hr = 0% inhibition; parenthesis = compound 1027; read-out: % inhib Aβ 40 10 μM
Parameter Measured: inhibition at 10 µM (%)

- CC(C)(O)[C@@H]1CCCN1c1cc(-c2cccc(C(O)C(F)(F)F)c2)cc2nonc12 (some centres unmarked) [TRV-1449]: 72
- CN(C)CCCN(C)c1cc(-c2cccc(C(O)C(F)(F)F)c2)cc2nonc12 (centres unmarked) [compound 1463]: 62
- OC(c1cccc(-c2cc(N3CC(CN4CCCC4)C3)c3nonc3c2)c1)C(F)(F)F (centres unmarked) [TRV-1457]: 65
- OC(c1cc(N2CCCC2)c2nonc2c1)C(F)(F)F (centres unmarked) [TRV-1368]: 61.4
- OC(c1cccc(-c2cc(N3CC(N4CCCC4)C3)c3nonc3c2)c1)C(F)(F)F (centres unmarked) [TRV-1456]: 64
- OC(c1cccc(-c2cc(N3CC(CN4CCOCC4)C3)c3nonc3c2)c1)C(F)(F)F (centres unmarked) [TRV-1455]: 60
- CN(Cc1nccs1)c1cc(-c2cccc(C(O)C(F)(F)F)c2)cc2nonc12 (centres unmarked) [TRV-1459]: 62
- CC1(O)CN(c2cc(-c3cccc(C(O)C(F)(F)F)c3)cc3nonc23)C1 (centres unmarked) [TRV-1436]: 67

----------
System Name: Aβ40 (Homo sapiens, UniProt P05067)
Protocol Notes: kinetic ThT assay for Aβ aggregation
Type: biochemical
Assay Context: 80 h, compound 5 μm; DMSO control at 80 hr = 0% inhibition; parenthesis = compound 1027; read-out: % inhib Aβ 40 (5 μm)
Parameter Measured: inhibition at 5 µM (%)

• COCCN(C)c1cc(-c2cccc(C(O)C(F)(F)F)c2)cc2nonc12 (stereo not shown) = 54.9
• OC(c1cccc(-c2cc(N3Cc4ccccc4C3)c3nonc3c2)c1)C(F)(F)F (stereo not shown) = 39
• O=C(c1cccc(-c2cc(N3CCC3)c3nonc3c2)c1)N1CCNCC1 = 52
• CN(Cc1ccc(F)cc1)c1cc(C(=O)C(F)(F)F)cc2nonc12 = 52
• OC1CN(c2cc(-c3cccc(C(O)C(F)(F)F)c3)cc3nonc23)C1 (stereo not shown) = 53
• CC(=O)c1cc(N(C)Cc2ccc(F)cc2)c2nonc2c1 = 34
• CN(c1cc(-c2cccc(C(O)C(F)(F)F)c2)cc2nonc12)C1CC1 (stereo not shown) = 46
• OC(c1cc(N2Cc3ccccc3C2)c2nonc2c1)C(F)(F)F (stereo not shown) = 44
• OC1(c2cc(N3Cc4ccccc4C3)c3nonc3c2)COC1 = 48
• OC(c1cccc(-c2cc(N3CCC(N4CCCC4)CC3)c3nonc3c2)c1)C(F)(F)F (stereo not shown) = 40
